Data origin: patent US10294234B2

# Run Description: in vivo
# Measurement Setup: rat, in vivo, iv
Assay Readout: RAT IV CL

compound="COC(=O)N[C@H](C(=O)N[C@@H](Cc1ccc(C#Cc2ccc(N3CC4CCC(C3)N4C3COC3)nc2)cc1)[C@@H](O)CN(Cc1c(F)cc(-c2cc(F)ccn2)cc1F)NC(=O)[C@@H](NC(=O)OC)C(C)(C)C(F)(F)F)C(C)(C)C(F)(F)F [Example 239]" observed_result="0.4 L/h/kg"
compound="COC(=O)N[C@H](C(=O)N[C@@H](Cc1ccc(C#Cc2ccc(N3CC4CCC(C3)N4C3COC3)nc2)cc1)[C@@H](O)CN(Cc1ccc(-c2ccccn2)cc1)NC(=O)[C@@H](NC(=O)OC)C(C)(C)C(F)(F)F)C(C)(C)C(F)(F)F [Example 56]" observed_result="0.85 L/h/kg"
compound="COC(=O)N[C@H](C(=O)N[C@@H](Cc1ccc(C#Cc2cnc(N3CC4CCC(C3)N4C3COC3)nc2)cc1)[C@@H](O)CN(Cc1c(F)cc(-c2ccn(CC(F)F)n2)cc1F)NC(=O)[C@@H](NC(=O)OC)C(C)(C)C(F)(F)F)C(C)(C)C(F)(F)F [Example 36]" observed_result="0.32 L/h/kg"
compound="COC(=O)N[C@H](C(=O)N[C@@H](Cc1ccc(C#Cc2ccc(N3CC4CCC(C3)N4C3COC3)nc2)cc1)[C@@H](O)CN(Cc1c(F)cc(-c2cn(C(F)F)cn2)cc1F)NC(=O)[C@@H](NC(=O)OC)C(C)(C)C(F)(F)F)C(C)(C)C(F)(F)F [Example 79]" observed_result="0.77 L/h/kg"
compound="COC(=O)N[C@H](C(=O)N[C@@H](Cc1ccc(C#Cc2cnc(N3CC4CCC(C3)N4C3COC3)nc2)cc1)[C@@H](O)CN(Cc1c(F)cc(-c2ccn(C(F)F)n2)cc1F)NC(=O)[C@@H](NC(=O)OC)C(C)(C)C(F)(F)F)C(C)(C)C(F)(F)F [Example 171]" observed_result="0.32 L/h/kg"

====

# Measurement Setup: human, microsomes
Assay Readout: Human Pred Cl.

mol=COC(=O)N[C@H](C(=O)N[C@@H](Cc1ccc(C#Cc2ccc(N3CC4CCC(C3)N4C3COC3)nc2)cc1)[C@@H](O)CN(Cc1c(F)cc(-c2cc(OC3COC3)ccn2)cc1F)NC(=O)[C@@H](NC(=O)OC)C(C)(C)C(F)(F)F)C(C)(C)C(F)(F)F assay_readout="Human Pred Cl." observed_result="0.54 L/H/kg"
mol=COC(=O)N[C@H](C(=O)N[C@@H](Cc1ccc(-c2ccc(N3CC4CCC(C3)N4C3COC3)nc2)cc1)[C@@H](O)CN(Cc1c(F)cc(-c2ccc(N3CC4CCC(C3)N4C3COC3)nc2)cc1F)NC(=O)[C@@H](NC(=O)OC)C(C)(C)C(F)(F)F)C(C)(C)C(F)(F)F assay_readout="Human Pred Cl." observed_result="0.32 L/H/kg"
mol=COC(=O)N[C@H](C(=O)N[C@@H](Cc1ccc(C#Cc2cnc(N3CC4CCC(C3)N4C3COC3)nc2)cc1)[C@@H](O)CN(Cc1c(F)cc(-c2ccn(C(F)F)n2)cc1F)NC(=O)[C@@H](NC(=O)OC)C(C)(C)C)C(C)(C)C assay_readout="Human Pred Cl." observed_result="<0.11 L/H/kg"
mol=COC(=O)N[C@H](C(=O)N[C@@H](Cc1ccc(C#Cc2cnc(N3CC4CCC(C3)N4C3COC3)nc2)cc1)[C@@H](O)CN(Cc1c(F)cc(-c2cnn(C(F)F)c2)cc1F)NC(=O)[C@@H](NC(=O)OC)C(C)(C)C(F)(F)F)C(C)(C)C(F)(F)F assay_readout="Human Pred Cl." observed_result="<0.11 L/H/kg"
mol=COC(=O)N[C@H](C(=O)N[C@@H](Cc1ccc(C#Cc2cnc(N3CC4CCC(C3)N4C3COC3)nc2)cc1)[C@@H](O)CN(Cc1ccc(-c2ccn(C(F)F)n2)cc1)NC(=O)[C@@H](NC(=O)OC)C(C)(C)C(F)(F)F)C(C)(C)C(F)(F)F assay_readout="Human Pred Cl." observed_result="<0.11 L/H/kg"
mol=CC(C)([C@H](NC(=O)OC1COC1)C(=O)N[C@@H](Cc1ccc(C#Cc2cnc(N3CC4CCC(C3)N4C3COC3)nc2)cc1)[C@@H](O)CN(Cc1c(F)cc(-c2ccn(C(F)F)n2)cc1F)NC(=O)[C@@H](NC(=O)OC1COC1)C(C)(C)C(F)(F)F)C(F)(F)F assay_readout="Human Pred Cl." observed_result="<0.11 L/H/kg"
mol=COC(=O)N[C@H](C(=O)N[C@@H](Cc1ccc(C#Cc2ccc(N3CC4CCC(C3)N4C3COC3)nc2)cc1)[C@@H](O)CN(Cc1ccc(-c2cnn(C(F)F)c2)cc1)NC(=O)[C@@H](NC(=O)OC)C(C)(C)C(F)(F)F)C(C)(C)C(F)(F)F assay_readout="Human Pred Cl." observed_result="<0.11 L/H/kg"
mol=COC(=O)N[C@H](C(=O)N[C@@H](Cc1ccc(C#Cc2ccc(N3CC4COCC(C3)N4C)nc2)cc1)[C@@H](O)CN(Cc1c(F)cc(-c2ccn(C3CC3)n2)cc1F)NC(=O)[C@@H](NC(=O)OC)C(C)(C)C(F)(F)F)C(C)(C)C(F)(F)F assay_readout="Human Pred Cl." observed_result="<0.11 L/H/kg"
mol=COC(=O)N[C@H](C(=O)N[C@@H](Cc1ccc(C#Cc2ccc(N3CC4CCC(C3)N4C3COC3)nc2)cc1)[C@@H](O)CN(Cc1c(F)cc(-c2cnn(C(F)F)c2)cc1F)NC(=O)[C@@H](NC(=O)OC)C(C)(C)CF)C(C)(C)CF assay_readout="Human Pred Cl." observed_result="<0.11 L/H/kg"
mol=COC(=O)N[C@H](C(=O)N[C@@H](Cc1ccc(C#Cc2ccc(N3CC4CCC(C3)N4C3COC3)nc2)cc1)[C@@H](O)CN(Cc1c(F)cc(-c2cn(C(F)F)cn2)cc1F)NC(=O)[C@@H](NC(=O)OC)C(C)(C)C(F)(F)F)C(C)(C)C(F)(F)F assay_readout="Human Pred Cl." observed_result="<0.11 L/H/kg"
mol=COC(=O)N[C@H](C(=O)N[C@@H](Cc1ccc(C#Cc2cnc(N3CC4CCC(C3)N4C3COC3)nc2)cc1)[C@@H](O)CN(Cc1c(F)cc(-c2ccn(CC(F)F)n2)cc1F)NC(=O)[C@@H](NC(=O)OC)C(C)(C)C(F)(F)F)C(C)(C)C(F)(F)F assay_readout="Human Pred Cl." observed_result="<0.11 L/H/kg"
mol=COC(=O)N[C@H](C(=O)N[C@@H](Cc1ccc(C#Cc2ccc(N3CC4CCC(C3)N4C3COC3)nc2)cc1)[C@@H](O)CN(Cc1c(F)cc(C2CCOCC2)cc1F)NC(=O)[C@@H](NC(=O)OC)C(C)(C)C(F)(F)F)C(C)(C)C(F)(F)F assay_readout="Human Pred Cl." observed_result="0.82 L/H/kg"
mol=COC(=O)N[C@H](C(=O)NN(Cc1c(F)cc(-c2ccc(F)cn2)cc1F)C[C@H](O)[C@H](Cc1ccc(C#Cc2ccc(N3CC4CCC(C3)N4C3COC3)nc2)cc1)NC(=O)[C@@H](NC(=O)OC)C(C)(C)C(F)(F)F)C(C)(C)C assay_readout="Human Pred Cl." observed_result="0.39 L/H/kg"
mol=COC(=O)N[C@H](C(=O)N[C@@H](Cc1ccc(C#Cc2cnc(N3CC4CCC(C3)N4C3COC3)nc2)cc1)[C@@H](O)CN(Cc1c(F)cc(-c2cnc(C)nc2)cc1F)NC(=O)[C@@H](NC(=O)OC)C(C)(C)C(F)(F)F)C(C)(C)C(F)(F)F assay_readout="Human Pred Cl." observed_result="<0.11 L/H/kg"
mol=COC(=O)N[C@H](C(=O)N[C@@H](Cc1ccc(C#Cc2ccc(N3CC4CCC(C3)N4C3COC3)nc2)cc1)[C@@H](O)CN(Cc1c(F)cc(-c2ccc(C)cn2)cc1F)NC(=O)[C@@H](NC(=O)OC)C(C)(C)C(F)(F)F)C(C)(C)C(F)(F)F assay_readout="Human Pred Cl." observed_result="<0.11 L/H/kg"
